Target: T1, hVEGF-A (8-109) (human, UniProt P15692 214-315)
T1 sequence (looked up): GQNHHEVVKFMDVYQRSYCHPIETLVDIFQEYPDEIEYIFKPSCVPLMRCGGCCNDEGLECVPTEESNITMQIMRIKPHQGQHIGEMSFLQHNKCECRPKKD
Assay: spot phage ELISA

{"columns": ["binder", "ELISA"],
 "data": [
  ["GCQDPTLNWATYCKQDSDCLAGCVCQMYQSCG (designed binder) [VEGF_CKP7.43]", 0.5],
  ["GCLDRTLNWALYCKQDSDCLAGCVCQMYNSCG (designed binder) [VEGF_CKP7.54]", 0.5],
  ["GCLDPSFNWSLYCKQDSDCLAGCVCQMYDSCG (designed binder) [VEGF_CKP7.57]", 1]
]}
